Overview of recorded binding affinity relative to recombinant TNF-α for various binders
# TEST TARGET: T1, TNF-R2 (a protein having the amino acid sequence, Accession No. M55994 registered at GENBANK) (UniProt P20333 23-257, limits assumed)
# T1 construct: also called TNF receptor with 75 kilo daltons
# T1 sequence (looked up): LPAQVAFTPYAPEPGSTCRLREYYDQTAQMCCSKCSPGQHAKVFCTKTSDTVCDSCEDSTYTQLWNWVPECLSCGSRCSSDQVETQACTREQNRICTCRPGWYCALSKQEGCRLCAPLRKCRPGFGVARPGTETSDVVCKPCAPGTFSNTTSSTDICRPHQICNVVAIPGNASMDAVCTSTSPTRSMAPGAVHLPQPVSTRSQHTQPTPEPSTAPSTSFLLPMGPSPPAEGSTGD
# PROTOCOL DETAILS: SPR (BIACORE 2000), receptor on sensor tip; grade 1 = 0.001 to 0.1 time that of recombinant TNF-α

Answered examples (2):
Q: Looking for the measured binding affinity relative to recombinant TNF-α of TNF mutant protein of clone No. 21 (ligand, Mutant of lysine-replaced TNF, made in E. coli) VRSSSRTPSDMPVAHVVANPQAEGQLQWLNRRANALLANGVELRDNQLVVPSEGLYLIYSQVLFSGQGCPSTHVLLTHTISRITSAYGPPVNLLSAIRSPCQRETPEGAEANPWYEPIYLGGVFQLEPGDRLSAEINRPDYLDFAESGQVYFGIIAL , can you help?
A: 0.001 to 0.1 fold

Q: I have this binder here, TNF mutant protein of clone No. 28 (ligand, Mutant of lysine-replaced TNF, made in E. coli) VRSSSRTPSDMPVAHVVANPQAEGQLQWLNRRANALLANGVELRDNQLVVPSEGLYLIYSQVLFSGQGCPSTHVLLTHTISRITKSYSKPVNLLSAIRSPCQRETPEGAEANPWYEPIYLGGVFQLEPGDRLSAEINRPDYLDFAESGQVYFGIIAL , and I need its recorded binding affinity relative to recombinant TNF-α.
A: 0.001 to 0.1 fold

New cases:
Q: For TNF mutant protein of clone No. 15 (ligand) VRSSSRTPSDMPVAHVVANPQAEGQLQWLNRRANALLANGVELRDNQLVVPSEGLYLIYSQVLFSGQGCPSTHVLLTHTISRITNHYSNPVNLLSAIRSPCQRETPEGAEANPWYEPIYLGGVFQLEPGDRLSAEINRPDYLDFAESGQVYFGIIAL , what is its reported binding affinity relative to recombinant TNF-α?
A: 0.001 to 0.1 fold
